- Assay info: Evaluated for apparent pseudo first-order hydrolytic rate constant(K) in chemical hydrolysis
- Type: ADME
Quantity kind: k (min⁻¹)

Some compounds with known k results, for comparison:
[[record]]
compound = "CC(C)(C)NCC(O)c1cc2cccc(CC(=O)OC3CCCCC3)c2o1 (configuration not stated)"
quantity_kind = "k"
quantitative_readout = 0.045

[[record]]
compound = "CSCOC(=O)Cc1cccc2cc(C(O)CNC(C)(C)C)oc12 (configuration not stated)"
quantity_kind = "k"
quantitative_readout = 0.027

[[record]]
compound = "CC(C)OC(=O)Cc1cccc2cc(C(O)CNC(C)(C)C)oc12 (configuration not stated)"
quantity_kind = "k"
quantitative_readout = 0.015

[[record]]
compound = "COC(=O)Cc1cccc2cc(C(O)CNC(C)(C)C)oc12 (configuration not stated)"
quantity_kind = "k"
quantitative_readout = 0.096

[[record]]
compound = "CCOC(=O)Cc1cccc2cc(C(O)CNC(C)(C)C)oc12 (configuration not stated)"
quantity_kind = "k"
quantitative_readout = 0.084


(a) CC(C)(C)NCC(O)c1cc2cccc(CC(=O)OCCC34C[C@H]5C[C@@H](C3)C[C@@H](C4)C5)c2o1 (some centres not stated)
(b) CC(C)(C)NCC(O)c1cc2cccc(CC(=O)OC(C)(C)C)c2o1 (configuration not stated)
Query :: Pick one, a or b : lowest reported k. Identify your pick by its label.
Result :: a
